target: σ-receptor; test: σ-receptor binding, [^3 H] DTG displacement on rat brain membranes (Table 1); settings: radioactive ligand for σ-receptor, used in Ki calculation; read-out: Kd (concentration of affinity of radioactive ligand for receptor)
measure: Kd (nM)

# compound, system, observedResult
records = [
    ("Cc1ccccc1NC(=N)Nc1ccccc1C [radioactive ligand, [^3 H] 1,3-di(2-tolyl) guanidine, reference compound]", "σ-receptor", 10.6),
]

====

molecular target: σ-receptor; test: σ-receptor binding, [^3 H] DTG displacement on rat brain membranes (Table 1); details: hydrochloride; [^3 H] DTG 3 nM, 25° C., 60 minutes; rat brain membrane; read-out: Sigma [^3 H] DTG Ki
hey, just use criterion met if measured Ki is less than 0.3 nM, otherwise criterion not met

# molecule, assignedCategory
rows = [
    ("CC12CC3CC(C1)CC(CCN1CC4CC5CC(C4)CC1C5)(C3)C2", "criterion met"),
    ("OC12CC3CC(C1)C(CCN1CC4CCC(CC4)C1)C(C3)C2 (single isomer, unassigned)", "criterion not met"),
    ("CC12CC3CC(C1)CC(CCN1CC4CCC(CC4)C1)(C3)C2", "criterion not met"),
    ("C1C2CC3CC1CC(C2)C3CCN1CC2CC3CC(C2)CC1C3 (stereo not drawn)", "criterion met"),
    ("ClC12CC3CC(C1)C(CCN1CC4CC5CC(C4)CC1C5)C(C3)C2 (stereo not drawn)", "criterion not met"),
    ("C1CC2CCC1CN(CCC13CC4CC(CC(C4)C1)C3)C2", "criterion met"),
    ("COC12CC3CC(C1)C(CCN1CC4CC5CC(C4)CC1C5)C(C3)C2 (stereo not drawn)", "criterion not met"),
    ("C1C2CC3CC1CC(C2)N(CCC12CC4CC(CC(C4)C1)C2)C3", "criterion met"),
    ("OC12CC3CC(C1)C(CCN1CC4CC5CC(C4)CC1C5)C(C3)C2 (stereo not drawn)", "criterion not met"),
]
